ASSAY METHOD TEXT: pharmacokinetics in mouse (Table 3)
Assay type: in vivo
TEST CONDITIONS: in vivo; mouse, 20 mg/kg
Counter-ions that a name gives are not always drawn.
OBSERVED PROPERTY: half-life (min)
One number for each entry, in min.

Observe how each entry below is paired with its result.
>>> recorded_value("CO/N=C(\\C(=O)N[C@@H]1C(=O)N2C(C(=O)O)=C(COC(C)=O)CS[C@H]12)c1csc(N)n1")
27
>>> recorded_value("CO/N=C(\\C(=O)N[C@@H]1C(=O)N2C(C(=O)O)=C(CSc3nnnn3CCNS(=O)(=O)O)CS[C@H]12)c1csc(N)n1 [Compound A, disodium salt]")
114

Read the next record carefully.
Entry Cn1nnnc1SCC1=C(C(=O)O)N2C(=O)[C@@H](NC(=O)[C@H](O)c3ccccc3)[C@H]2SC1 has what half-life?
12

----------
ASSAY METHOD TEXT: pharmacokinetics in mouse (Table 3)
Assay type: in vivo
TEST CONDITIONS: serum; mouse, 20 mg/kg; read-out: Peak Serum Level
Where a name gives a salt, the structure may show the parent alone.
Can you tell me Cmax for the items I'm about to list?
Answers are plain numbers, in ng/mL.

Observe how each entry below is paired with its result.
>>> recorded_value("CO/N=C(\\C(=O)N[C@@H]1C(=O)N2C(C(=O)O)=C(CSc3nnnn3CCNS(=O)(=O)O)CS[C@H]12)c1csc(N)n1 [Compound A, disodium salt]")
78000
>>> recorded_value("CO/N=C(\\C(=O)N[C@@H]1C(=O)N2C(C(=O)O)=C(COC(C)=O)CS[C@H]12)c1csc(N)n1")
25000

Entry Cn1nnnc1SCC1=C(C(=O)O)N2C(=O)[C@@H](NC(=O)[C@H](O)c3ccccc3)[C@H]2SC1 has what Cmax?
34000
